Data origin, for the record: PubChem BioAssay (NCATS)

system: HEK293; experiment: Cytotoxic Profiling of Annotated Libraries Using Quantitative High-Throughput Screening (AID 1296008); settings: Five cell lines viability, CellTiter-Glo ATP luminescence, 48-72 h; also: nearly all actives have a fitted effect of over 60% in size
Inconclusive results are not listed. Calls of active or inactive are those of the source. Calls follow the shape of the dose curve; as a rule, active = well fitted inhibition curve with a large enough effect; inconclusive = small, poorly fitted or top-dose-only effect; inactive = flat fitted curve, though single readings scatter.
The reply should be one of these categories: active, inactive

C=C[C@H]1C(O[C@@H]2O[C@H](CO)[C@@H](O)[C@H](O)[C@H]2O)OC=C2C(=O)N3CCc4c([nH]c5ccccc45)C3CC21 (some centres undefined) : inactive
CO[C@H]1/C=C/C=C/C=C/C[C@H](OC(=O)[C@@H](C)NC(=O)C2CCCCC2)[C@H](C)[C@@H](O)/C(C)=C/CCc2cc(O)cc(c2)NC(=O)C1 : active
Nc1ccc(-c2cccc3c(=O)cc(N4CCOCC4)oc23)cc1 : active

[in] Check the results log: what was the call for `O=[N+]([O-])c1cccc2[nH]c(CNc3nc(N4CCOCC4)nc4c3ncn4-c3ccsc3)nc12` ?
[out] active

[in] Follow-up item: `Cc1cc(=O)oc2c(C=O)c(O)ccc12`
[out] inactive

[in] Next molecule: `NCCCNc1ccc(Nc2nccc(Nc3cc(C4CC4)[nH]n3)n2)cc1`
[out] active

[in] Also, C=C1C(=O)OC2C1CCC(=C)C1CC(OC(C)=O)C(=C)C12 (centres undefined) please.
[out] active

[in] Next entry: `CS(=O)(=O)c1ccc(-c2nnc(/C=C/c3nnc(-c4ccc(C#N)cc4)o3)n2-c2ccccc2Cl)nc1`
[out] active

[in] Further, for COC(=O)CC(O)CC(O)/C=C/c1c(C)ccc2c1C(O)CC(C)C2 (centres undefined) ?
[out] inactive
